Entry source: patent US9951064B2

# ASSAY SYSTEM: EGFR T790M L858R (Homo sapiens, UniProt P00533, L858R/T790M)
# Sequence (P00533 25-1210 T790M/L858R): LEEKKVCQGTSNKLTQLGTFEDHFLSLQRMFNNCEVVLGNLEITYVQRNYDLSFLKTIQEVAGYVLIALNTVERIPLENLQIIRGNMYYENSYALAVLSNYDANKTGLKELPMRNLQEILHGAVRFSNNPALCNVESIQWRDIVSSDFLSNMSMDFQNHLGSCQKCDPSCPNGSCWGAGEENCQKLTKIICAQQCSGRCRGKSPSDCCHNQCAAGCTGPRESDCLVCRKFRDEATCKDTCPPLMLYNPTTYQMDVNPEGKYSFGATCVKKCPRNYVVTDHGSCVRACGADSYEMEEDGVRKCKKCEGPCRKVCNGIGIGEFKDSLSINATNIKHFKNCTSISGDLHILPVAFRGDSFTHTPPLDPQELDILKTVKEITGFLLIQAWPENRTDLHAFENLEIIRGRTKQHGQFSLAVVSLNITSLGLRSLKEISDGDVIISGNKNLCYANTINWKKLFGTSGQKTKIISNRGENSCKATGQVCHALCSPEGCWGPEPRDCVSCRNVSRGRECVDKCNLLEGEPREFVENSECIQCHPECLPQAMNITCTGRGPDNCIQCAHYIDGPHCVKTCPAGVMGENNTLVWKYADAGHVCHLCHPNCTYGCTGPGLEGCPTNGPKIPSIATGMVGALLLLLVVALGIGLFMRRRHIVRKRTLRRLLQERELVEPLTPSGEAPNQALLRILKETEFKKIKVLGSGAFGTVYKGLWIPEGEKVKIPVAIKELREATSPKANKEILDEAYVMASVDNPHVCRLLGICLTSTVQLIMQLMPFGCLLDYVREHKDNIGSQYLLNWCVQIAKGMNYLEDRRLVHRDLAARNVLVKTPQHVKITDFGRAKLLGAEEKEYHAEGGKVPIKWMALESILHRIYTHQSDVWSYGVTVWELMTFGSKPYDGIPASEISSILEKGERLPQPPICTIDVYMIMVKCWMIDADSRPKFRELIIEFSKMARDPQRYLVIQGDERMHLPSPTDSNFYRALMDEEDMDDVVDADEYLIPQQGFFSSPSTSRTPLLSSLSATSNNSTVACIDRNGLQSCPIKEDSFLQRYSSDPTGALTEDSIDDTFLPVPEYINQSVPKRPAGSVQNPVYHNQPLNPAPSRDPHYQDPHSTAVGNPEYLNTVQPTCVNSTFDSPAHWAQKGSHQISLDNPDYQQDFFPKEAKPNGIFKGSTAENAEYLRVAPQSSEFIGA
# PROTOCOL SUMMARY: EGFR T790M L858R biochemical assay (Caliper mobility shift)
# MEASUREMENT CONDITIONS: 5 μM ATP; apparent Ki (Morrison fit) converted by Cheng-Prusoff, Km of ATP 1.3 μM
Could you please mark 1 (yes) for values of Ki below 1 nM and 0 (no) for values at or above it?

>  <MOLECULE>
CC(C)n1nc(N2CCC(O)C2)c2cnc(Nc3ccnc(-c4cnn(S(=O)(=O)C5CC5)c4)n3)cc21 (stereo not shown) [Example 18]

>  <ASSAY SYSTEM>
EGFR T790M L858R (Homo sapiens, UniProt P00533, L858R/T790M)

>  <CATEGORY>
1 (yes)

$$$$
>  <MOLECULE>
CC(C)n1nc(N2CCN=C2O)c2cnc(Nc3ccnc(-c4cnn(S(=O)(=O)C5CC5)c4)n3)cc21 [Example 43]

>  <ASSAY SYSTEM>
EGFR T790M L858R (Homo sapiens, UniProt P00533, L858R/T790M)

>  <CATEGORY>
1 (yes)

$$$$
>  <MOLECULE>
CCS(=O)(=O)n1cc(-c2nccc(Nc3cc4c(cn3)c(NC3CCOC3)nn4C(C)C)n2)cn1 (stereo not shown) [Example 38]

>  <ASSAY SYSTEM>
EGFR T790M L858R (Homo sapiens, UniProt P00533, L858R/T790M)

>  <CATEGORY>
0 (no)

$$$$
>  <MOLECULE>
CCN1CCN(c2nn(C(C)C)c3cc(Nc4ccnc(-c5cnn(S(=O)(=O)C6CC6)c5)n4)ncc23)CC1 [Example 118]

>  <ASSAY SYSTEM>
EGFR T790M L858R (Homo sapiens, UniProt P00533, L858R/T790M)

>  <CATEGORY>
0 (no)

$$$$
>  <MOLECULE>
CCC(C)n1nc(N2CCCC2=O)c2cnc(Nc3ccnc(N4CCC(C)(O)CC4)n3)cc21 (stereo not shown) [Example 204]

>  <ASSAY SYSTEM>
EGFR T790M L858R (Homo sapiens, UniProt P00533, L858R/T790M)

>  <CATEGORY>
0 (no)

$$$$

Input: A record lists CC(C)n1nc(N2CCOCC2)c2cnc(Nc3ccnc(-c4cnn(S(=O)(=O)C5CC5)c4)n3)cc21 [Example 51] . Is its Ki below 1 nM?
Output: 0 (no)
